Each recorded value in this set is attributed to patent US20240308995A1.

- tested_target: Recombinant full length human OGA enzyme (Homo sapiens (Human), UniProt O60502)
- Sequence (O60502 whole entry): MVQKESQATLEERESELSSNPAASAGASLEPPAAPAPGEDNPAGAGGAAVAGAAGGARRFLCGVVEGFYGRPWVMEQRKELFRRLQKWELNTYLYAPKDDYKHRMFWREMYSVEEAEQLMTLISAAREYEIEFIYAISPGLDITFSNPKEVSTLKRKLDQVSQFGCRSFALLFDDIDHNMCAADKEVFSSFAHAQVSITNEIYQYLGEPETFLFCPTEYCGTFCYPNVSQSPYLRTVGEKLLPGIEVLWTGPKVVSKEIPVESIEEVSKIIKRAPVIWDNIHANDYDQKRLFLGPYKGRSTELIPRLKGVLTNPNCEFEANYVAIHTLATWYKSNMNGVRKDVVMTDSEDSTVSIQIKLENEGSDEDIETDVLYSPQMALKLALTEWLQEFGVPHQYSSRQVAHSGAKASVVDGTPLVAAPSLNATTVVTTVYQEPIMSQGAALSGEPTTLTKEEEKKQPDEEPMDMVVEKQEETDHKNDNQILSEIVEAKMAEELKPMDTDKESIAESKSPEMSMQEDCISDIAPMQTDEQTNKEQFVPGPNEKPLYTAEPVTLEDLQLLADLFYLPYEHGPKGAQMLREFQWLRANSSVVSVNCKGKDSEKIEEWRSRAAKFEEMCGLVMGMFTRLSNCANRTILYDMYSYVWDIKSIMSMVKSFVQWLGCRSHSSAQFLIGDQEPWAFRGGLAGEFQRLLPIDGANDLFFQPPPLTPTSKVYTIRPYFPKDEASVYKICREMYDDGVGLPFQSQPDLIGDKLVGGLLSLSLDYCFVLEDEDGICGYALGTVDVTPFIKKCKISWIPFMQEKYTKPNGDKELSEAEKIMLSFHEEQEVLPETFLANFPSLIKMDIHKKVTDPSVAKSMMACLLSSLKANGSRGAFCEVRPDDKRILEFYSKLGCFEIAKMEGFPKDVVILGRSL
- protocol_description: OGA Enzyme Inhibition Biochemical Assay
- condition_summary: 1 nM OGA, 100 μM 4-MUGlcNAc, pH 6.4
Please go through the items and note down their IC50.
Numbers only, in µM.

>  <compound>
CC(=O)Nc1ncc(CN2C[C@H](Oc3cc(C(F)(F)F)ncn3)C[C@@H]2C)s1 [Example 1-79]

>  <IC50 (µM)>
0.011

$$$$

Would you kindly look at the next entry?
I'd like to know its IC50. The compound in question is COc1cc(O[C@H]2C[C@H](C)N(Cc3cnc(NC(C)=O)s3)C2)ncn1 [Example 1-39]
0.055

====

Please go through the items and note down their IC50.
- tested_target: Recombinant full length human OGA enzyme (Homo sapiens (Human), UniProt O60502)
- protocol_description: OGA Enzyme Inhibition Biochemical Assay
- condition_summary: 1 nM OGA, 100 μM 4-MUGlcNAc, pH 6.4

Some solved entries appear below for comparison.
>  <mol>
CC(=O)Nc1nc(F)c(CN2C[C@@H](Oc3cc(C)nc(C)c3)C[C@H]2C)s1

>  <tested_target>
Recombinant full length human OGA enzyme (Homo sapiens (Human), UniProt O60502)

>  <reported_value>
1700 nM

$$$$
>  <mol>
CC(=O)Nc1ncc(CN2C[C@H](Oc3cc(Cl)ncn3)C[C@@H]2C)s1

>  <tested_target>
Recombinant full length human OGA enzyme (Homo sapiens (Human), UniProt O60502)

>  <reported_value>
< 1 nM

$$$$

Would you kindly look at the next entry?
I'd like to know its IC50. The compound in question is CC(=O)Nc1ncc(CN2C[C@H](Oc3ccnc(C)c3)C[C@@H]2C)s1
< 1 nM

====

- tested_target: OGA (S400 O-GLCNAC), HEK-293T cells transfected with Tau-V5 (Homo sapiens (Human))
- protocol_description: Cellular OGA-Tau MSD Assay
- Assay type: cell-based
- condition_summary: HEK-293T cells, Tau-S400-GlcNAc MSD readout
Where a name gives a salt, the structure may show the parent alone.
Please go through the items and note down their IC50.
Numbers only, in nM.

Some solved entries appear below for comparison.
>  <compound>
COc1cnc(O[C@@H]2C[C@H](C)N(Cc3sc(NC(C)=O)nc3F)C2)cn1 [Example 1-105]

>  <unit_name>
nM

>  <IC50>
2

$$$$
>  <compound>
CC(=O)Nc1ncc(CN2C[C@H](Oc3cc(C)nc(C)c3)C[C@H]2C)s1 [Example 1-61]

>  <unit_name>
nM

>  <IC50>
39

$$$$
>  <compound>
CC(=O)Nc1nc(F)c(CN2C[C@H](Oc3cnc(N4CCOCC4)cn3)C[C@@H]2C)s1 [Example 1-142]

>  <unit_name>
nM

>  <IC50>
2

$$$$
>  <compound>
COc1cc(O[C@H]2CC[C@H](C)N(Cc3cnc(NC(C)=O)s3)C2)ncn1 [Example 1-43]

>  <unit_name>
nM

>  <IC50>
1

$$$$
>  <compound>
CC(=O)Nc1nc(F)c(CN2C[C@H](Oc3cc(C)nc(C)c3)C[C@@H]2C)s1 [Example 1-50]

>  <unit_name>
nM

>  <IC50>
1

$$$$
>  <compound>
COc1cc(O[C@@H]2CCCN(Cc3sc(NC(C)=O)nc3F)C2)ncn1 [Example 1-33]

>  <unit_name>
nM

>  <IC50>
51

$$$$
>  <compound>
[2H]C([2H])([2H])C(=O)Nc1nc(F)c(CN2C[C@H](Oc3cc(OC)ncn3)C[C@@H]2C)s1 (single isomer, unassigned) [Example 1-157, trifluoroacetate salt]

>  <unit_name>
nM

>  <IC50>
3

$$$$
>  <compound>
CNc1cc(O[C@@H]2C[C@H](C)N(Cc3cnc(NC(C)=O)s3)C2)ncn1 [Example 1-137]

>  <unit_name>
nM

>  <IC50>
2

$$$$
>  <compound>
COc1cncc(O[C@@H]2C[C@H](C)N(Cc3sc(NC(C)=O)nc3F)C2)n1 [Example 1-88]

>  <unit_name>
nM

>  <IC50>
1

$$$$
>  <compound>
CC(=O)Nc1ncc(CN2C[C@H](Oc3cc(N4CCC4)ncn3)C[C@@H]2C)s1 [Example 1-133]

>  <unit_name>
nM

>  <IC50>
1

$$$$

Please look at the items below and tell me IC50 for each one, in order.
1. [2H][C@]1(Oc2cc(OC)ncn2)C[C@H](C)N(Cc2cnc(NC(C)=O)s2)C1 [Example 1-164]
2. CC(=O)Nc1ncc(CN2C[C@H](Oc3ccc(F)cn3)C[C@@H]2C)s1 [Example 1-11]
3. COc1nccc(O[C@@H]2C[C@H](C)N(Cc3sc(NC(C)=O)nc3F)C2)n1 [Example 1-92]
4. CC(=O)Nc1nc(F)c(CN2C[C@H](Oc3ccnc(C)c3)C[C@@H]2C)s1 [Example 1-110]

[35, 3, 1, 1]

I'd like to know its IC50. The compound in question is CC(=O)Nc1nc(F)c(CN2C[C@H](Oc3cc(Cl)ccn3)C[C@@H]2C)s1 [Example 1-101]
3

====

- tested_target: OGA (S400 O-GLCNAC), HEK-293T cells transfected with Tau-V5 (Homo sapiens (Human), UniProt O60502)
- Sequence (O60502 whole entry): as above
- protocol_description: Cellular OGA-Tau MSD Assay
- Format: cell-based
- condition_summary: HEK-293T cells, Tau-S400-GlcNAc MSD readout
measurement_label: IC50 (nM)
Answers are plain numbers, in nM.

>  <compound>
[2H]C([2H])([2H])C(=O)Nc1ncc(CN2C[C@H](Oc3cc(OC)ncn3)C[C@@H]2C)s1 (single isomer, unassigned)

>  <IC50 [nM]>
2

$$$$
>  <compound>
CC(=O)Nc1ncc(CN2C[C@H](Oc3cc(C)ncc3C)C[C@@H]2C)s1

>  <IC50 [nM]>
8

$$$$

Please look at the items below and tell me IC50 for each one, in order.
1. [2H]C([2H])(c1cnc(NC(C)=O)s1)N1C[C@H](Oc2cc(OC)ncn2)C[C@@H]1C (single isomer, unassigned)
2. CC(=O)Nc1ncc(CN2C[C@H](Oc3cc(OCC(F)(F)F)ncn3)C[C@@H]2C)s1
3. CC(=O)Nc1ncc(CN2C[C@H](Oc3cc(C)nc(C)n3)C[C@@H]2C)s1

1: 3; 2: 10; 3: 1

====

Please go through the items and note down their RLM % Qh (%).
- protocol_description: Rat Liver Microsome Stability Assay
- Format: in vitro ADME
- condition_summary: rat liver microsomes, 1 uM compound
Numbers only, in %.

Some solved entries appear below for comparison.
>  <molecule>
CC(=O)Nc1nc(F)c(CN2C[C@H](Oc3cc(C)nc(C)c3)C[C@@H]2C)s1

>  <RLM % Qh (%)>
47

$$$$
>  <molecule>
COc1cnc(O[C@@H]2C[C@H](C)N(Cc3sc(NC(C)=O)nc3F)C2)cn1

>  <RLM % Qh (%)>
74

$$$$
>  <molecule>
COc1cc(O[C@@H]2CC[C@H](C)N(Cc3cnc(NC(C)=O)s3)C2)ncn1

>  <RLM % Qh (%)>
88

$$$$
>  <molecule>
CC(=O)Nc1ncc(CN2C[C@H](Oc3ccc(F)cn3)C[C@H]2C)s1

>  <RLM % Qh (%)>
76

$$$$
>  <molecule>
COc1cc(O[C@@H]2C[C@@H](C)N(Cc3cnc(NC(C)=O)s3)C2)ncn1

>  <RLM % Qh (%)>
32

$$$$

Please look at the items below and tell me RLM % Qh (%) for each one, in order.
1. [2H][C@@]1(Oc2cc(OC)ncn2)C[C@H](C)N(Cc2cnc(NC(C)=O)s2)C1 (single isomer, unassigned)
2. CC(=O)Nc1nc(F)c(CN2C[C@H](Oc3cc(OC4COC4)ncn3)C[C@@H]2C)s1
3. COc1cc(O[C@@H]2C[C@H](C)N(Cc3sc(NC(C)=O)nc3F)C2)ncc1F

30
43
85

====

- tested_target: OGA (S400 O-GLCNAC), HEK-293T cells transfected with Tau-V5 (Homo sapiens (Human))
- protocol_description: Cellular OGA-Tau MSD Assay
- Format: cell-based
- condition_summary: HEK-293T cells, Tau-S400-GlcNAc MSD readout
measurement_label: pIC50
Answers are plain numbers, as −log10 of the molar value.

Some solved entries appear below for comparison.
>  <molecule>
CC(=O)Nc1ncc(CN2C[C@H](Oc3ccc(F)nn3)C[C@@H]2C)s1 [Example 1-83]

>  <pIC50>
9.00

$$$$
>  <molecule>
CC(=O)Nc1ncc(CN2C[C@@H](Oc3ccc(F)cn3)CC[C@@H]2C)s1 [Example 1-5]

>  <pIC50>
8.40

$$$$
>  <molecule>
CC(=O)Nc1ncc(CN2C[C@H](Oc3cc(C)nc(C)c3)CC[C@@H]2C)s1 [Example 1-67]

>  <pIC50>
8.52

$$$$
>  <molecule>
COc1cc(O[C@@H]2CC[C@H](C)N(Cc3cnc(NC(C)=O)s3)C2)ncn1 [Example 1-44]

>  <pIC50>
8.70

$$$$
>  <molecule>
[2H][C@@]1(Oc2cc(OC)ncn2)C[C@H](C)N(Cc2sc(NC(C)=O)nc2F)C1 (single isomer, unassigned) [Example 1-165]

>  <pIC50>
8.70

$$$$

Please look at the items below and tell me pIC50 for each one, in order.
1. COc1cc(O[C@@H]2C[C@H](C)N(Cc3sc(NC(C)=O)nc3F)C2)ccn1 [Example 1-100]
2. CC(=O)Nc1nc(F)c(CN2C[C@@H](Oc3cc(C)nc(C)c3)C[C@@H]2C)s1 [Example 1-52]
3. COc1cc(O[C@H]2C[C@H](C)N(Cc3cnc(NC(C)=O)s3)C2)ncn1 [Example 1-39]
4. CC(=O)Nc1nc(F)c(CN2CCC[C@@H](Oc3cc(C)nc(C)c3)C2)s1 [Example 1-55]
5. [2H][C@]1(Oc2cc(OC)ncn2)C[C@H](C)N(Cc2sc(NC(C)=O)nc2F)C1 [Example 1-166]

9.00
7.26
7.52
7.89
7.96
